src = the supplement of paper PMC10065799

Tested on: AncSZ
TEST_PROTOCOL: phosphorylation enrichment, bacterial display (enrichment ratio); higher = better substrate or ligand; peptides without Tyr show the background;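 note: 11-residue human phosphosite peptides and single-mutation variants displayed on the E. coli surface, counted by deep sequencing, each peptide's frequency after selection divided by its frequency in the unselected input library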;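 note: frequency after pTyr selection over input frequency; kinase dosed for 20-30% of maximal phosphorylation in three min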
A collection of sequences and their measured phosphorylation enrichment
// print number alone

NIISFYLSRDP [CTSD_Y232_F229I]; 1.18
QLQTNYPSSDN [MAX_Y115]; 0.951

Report phosphorylation enrichment for LWQSIYNLEAE [TNNT2_Y251] please. 1.33

Report phosphorylation enrichment for GVLKEYGEKVL [CPS1_Y529_V531E] please. 0.742

Report phosphorylation enrichment for RFGKVYKGHLF [ROR2_Y488] please. 0.806

Report phosphorylation enrichment for SVTCTYSPAVN [TP53_Y126_L130V] please. 1.58

----------
TESTED_SYSTEM: EPHB2 (UniProt P29323)
Sequence (P29323 whole entry, looked up): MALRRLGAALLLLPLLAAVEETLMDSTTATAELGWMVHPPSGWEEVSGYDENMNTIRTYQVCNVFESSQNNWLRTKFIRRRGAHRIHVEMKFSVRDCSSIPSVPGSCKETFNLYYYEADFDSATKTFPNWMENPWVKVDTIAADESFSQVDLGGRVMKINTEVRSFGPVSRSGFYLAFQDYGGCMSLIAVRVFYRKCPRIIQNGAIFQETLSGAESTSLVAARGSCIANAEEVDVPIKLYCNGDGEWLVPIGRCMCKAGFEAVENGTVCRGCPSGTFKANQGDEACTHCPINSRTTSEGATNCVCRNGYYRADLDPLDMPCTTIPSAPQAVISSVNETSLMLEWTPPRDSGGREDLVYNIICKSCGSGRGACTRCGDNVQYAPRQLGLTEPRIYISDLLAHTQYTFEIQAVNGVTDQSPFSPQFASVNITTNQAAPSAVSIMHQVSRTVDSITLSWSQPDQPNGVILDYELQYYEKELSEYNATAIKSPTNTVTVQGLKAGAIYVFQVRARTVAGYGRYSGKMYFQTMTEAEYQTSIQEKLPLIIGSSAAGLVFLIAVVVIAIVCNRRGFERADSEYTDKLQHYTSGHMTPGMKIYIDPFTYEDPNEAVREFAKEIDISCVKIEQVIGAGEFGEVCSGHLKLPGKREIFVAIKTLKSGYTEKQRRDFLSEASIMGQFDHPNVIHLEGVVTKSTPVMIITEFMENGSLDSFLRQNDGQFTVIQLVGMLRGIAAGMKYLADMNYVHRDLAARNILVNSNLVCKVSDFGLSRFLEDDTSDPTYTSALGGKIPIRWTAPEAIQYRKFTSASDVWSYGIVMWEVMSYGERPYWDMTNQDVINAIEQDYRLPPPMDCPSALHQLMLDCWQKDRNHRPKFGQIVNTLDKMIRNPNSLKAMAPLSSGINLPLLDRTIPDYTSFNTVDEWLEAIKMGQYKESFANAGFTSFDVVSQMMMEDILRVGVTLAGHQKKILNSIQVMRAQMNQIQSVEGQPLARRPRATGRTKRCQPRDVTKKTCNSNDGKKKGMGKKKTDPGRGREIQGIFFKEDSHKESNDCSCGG
TEST_PROTOCOL: phosphorylation enrichment, bacterial display (enrichment ratio); higher = better substrate or ligand; peptides without Tyr show the background
RECORDED_ENDPOINT: phosphorylation enrichment
// print number alone

QWQQLYDTLNA [EIF3M_Y351]; 1.63
FADIAYNYRHG [PAH_Y166]; 0.503

Report phosphorylation enrichment for VYLGAYDRFLP [SLC22A5_Y486] please. 2.53

Report phosphorylation enrichment for GHLYAYDWISI [BEST1_Y227] please. 5.04

Report phosphorylation enrichment for DVYVSYDYGKS [SORL1_Y139] please. 5.62

Report phosphorylation enrichment for HISGVYKLPPD [ANGPTL7_Y145_R140H] please. 0.6

Report phosphorylation enrichment for FADIAYNYRDG [PAH_Y166_H170D] please. 0.501

----------
A collection of sequences and their measured phosphorylation enrichment
System: AncSZ
TEST_PROTOCOL: phosphorylation enrichment, bacterial display (enrichment ratio); higher = better substrate or ligand; peptides without Tyr show the background
// print number alone

Below: 8 sequences and their reported phosphorylation enrichment.
APRKVYDTRDD [ZFPL1_Y215]; 0.641
FSPPYYHRNCM [HGD_Y334_R330S]; 0.807
LFSLGYHQSRW [GANAB_Y396]; 1.04
SGEKPYKCSVC [ZNF543_Y283_E287V]; 0.495
MENFIYESMRY [CYP19A1_Y361]; 1.23
SQQTFYPVSNM [ABCD1_Y181_R182P_YF]; 0.706
WQQQSYLDYGI [CTNNB1_Y30_S33Y]; 1.11
RHPREYQDLLN [DES_Y388_L385P]; 0.668

Report phosphorylation enrichment for DDHFTYSRYPW [LY75_Y888] please. 1.49

Report phosphorylation enrichment for EVASVYESFQP [MAVS_Y92_Q93E_YF] please. 1.91

Report phosphorylation enrichment for FADIAYNFRHA [PAH_Y166_G171A_YF] please. 0.661

Report phosphorylation enrichment for ELAKYYKLHHI [AK7_Y391_N389K] please. 0.884

Report phosphorylation enrichment for DVYVSYDYGKS [SORL1_Y139] please. 1.45

Report phosphorylation enrichment for HNLNYYKKTTN [FGFR3_Y648_D646N] please. 0.791

----------
Test system: c-Abl (mouse)
TEST_PROTOCOL: phosphorylation enrichment, bacterial display (enrichment ratio); higher = better substrate or ligand; peptides without Tyr show the background
RECORDED_ENDPOINT: phosphorylation enrichment
// print number alone

ETSHNYHKFDS [MATR3_Y243]; 0.61
RENGPYFTSFP [GDAP2_Y487_YF]; 1.19
LDYNEYFRGLN [HPRT1_Y198_D201G]; 0.847
QTWKTYVRHQQ [SFI1_Y164_Q167H]; 1.36
RTTKTYFPHFD [HBA1_Y43_P38R]; 0.884

Report phosphorylation enrichment for SVTCTYFPALN [TP53_Y126_S127F] please. 1.13

Report phosphorylation enrichment for LVSCTYQLARG [FGFR2_Y608] please. 0.91

----------
A collection of sequences and their measured phosphorylation enrichment
TESTED_SYSTEM: EPHB1 (UniProt P54762)
Sequence (P54762 whole entry, looked up): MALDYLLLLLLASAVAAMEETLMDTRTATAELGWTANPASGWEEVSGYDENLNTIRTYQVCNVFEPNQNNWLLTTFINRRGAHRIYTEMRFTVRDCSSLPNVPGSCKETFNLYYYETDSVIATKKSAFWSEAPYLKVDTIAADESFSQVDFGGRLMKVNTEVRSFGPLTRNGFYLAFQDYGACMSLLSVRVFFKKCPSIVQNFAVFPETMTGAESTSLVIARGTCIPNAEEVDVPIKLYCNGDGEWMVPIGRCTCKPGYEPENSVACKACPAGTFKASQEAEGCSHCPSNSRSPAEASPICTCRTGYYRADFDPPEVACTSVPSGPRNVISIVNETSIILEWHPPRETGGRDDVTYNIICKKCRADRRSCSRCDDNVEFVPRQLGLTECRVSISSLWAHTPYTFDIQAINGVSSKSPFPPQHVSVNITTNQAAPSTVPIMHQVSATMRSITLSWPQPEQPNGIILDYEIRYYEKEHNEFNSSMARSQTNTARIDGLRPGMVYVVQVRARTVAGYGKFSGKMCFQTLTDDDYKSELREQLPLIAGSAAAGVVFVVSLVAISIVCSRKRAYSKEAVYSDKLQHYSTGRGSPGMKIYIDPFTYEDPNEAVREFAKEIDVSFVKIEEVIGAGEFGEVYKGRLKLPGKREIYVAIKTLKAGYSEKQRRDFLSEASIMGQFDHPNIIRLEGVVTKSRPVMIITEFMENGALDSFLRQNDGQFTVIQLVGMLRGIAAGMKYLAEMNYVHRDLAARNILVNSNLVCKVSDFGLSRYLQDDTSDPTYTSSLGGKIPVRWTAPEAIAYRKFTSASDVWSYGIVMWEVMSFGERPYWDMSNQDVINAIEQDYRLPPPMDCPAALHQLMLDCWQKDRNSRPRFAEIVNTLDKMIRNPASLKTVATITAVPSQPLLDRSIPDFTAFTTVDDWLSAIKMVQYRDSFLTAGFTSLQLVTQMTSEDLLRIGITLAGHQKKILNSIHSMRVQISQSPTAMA
TEST_PROTOCOL: phosphorylation enrichment, bacterial display (enrichment ratio); higher = better substrate or ligand; peptides without Tyr show the background
// print number alone

PSPMPYAFCQM [FOXL2_Y215_S217F]; 1.3

Recall the recorded phosphorylation enrichment for LSGVIYVILRK [PMP22_Y153] with EPHB1 (UniProt P54762) and state it. 0.46

Recall the recorded phosphorylation enrichment for RENGPYFTSFP [GDAP2_Y487_YF] with EPHB1 (UniProt P54762) and state it. 0.417

Recall the recorded phosphorylation enrichment for EVKEAYMGNVL [ACAT1_Y90] with EPHB1 (UniProt P54762) and state it. 0.341

Recall the recorded phosphorylation enrichment for GGDVIYKGFED [NFU1_Y194] with EPHB1 (UniProt P54762) and state it. 0.425

Recall the recorded phosphorylation enrichment for HICTAYKLVLA [DHCR24_Y190_E191K] with EPHB1 (UniProt P54762) and state it. 1.49

Recall the recorded phosphorylation enrichment for CGASGYSATST [CERT1_Y143_S138C] with EPHB1 (UniProt P54762) and state it. 0.55

----------
System: c-Abl (mouse)
TEST_PROTOCOL: phosphorylation enrichment, bacterial display (enrichment ratio); higher = better substrate or ligand; peptides without Tyr show the background
A collection of sequences and their measured phosphorylation enrichment
// print number alone

Below: 3 sequences and their reported phosphorylation enrichment.
ALIKAYDKAVA [SMN1_Y43]; 0.461
CTLLPYYSARV [DGKE_Y269]; 0.735
RLLREYQELMN [KRT75_Y434]; 0.67

Report phosphorylation enrichment for DIDKIYIRTGI [PIK3CA_Y355_V356I] please. 0.576

Report phosphorylation enrichment for QADIIYVNTQL [MERTK_Y872_V870I] please. 1.02

Report phosphorylation enrichment for TQNAVYSAANF [DDX5_Y535_G533A_YF] please. 7.53

Report phosphorylation enrichment for MLNTNYHLPPS [MT-ATP8_Y33] please. 0.556

Report phosphorylation enrichment for LKTNCYNNGKD [DNMT3B_Y404] please. 3.04

Report phosphorylation enrichment for MGGSLYFSYPD [HIKESHI_Y55_V54L] please. 1.16

Report phosphorylation enrichment for AVVEPYNSILT [TUBA1A_Y185] please. 0.534

Report phosphorylation enrichment for ADARMYGVLPR [PLP1_Y207_W212R] please. 0.481

Report phosphorylation enrichment for FEEDSYVKRSQ [RET_Y905_YF] please. 0.645

Report phosphorylation enrichment for LKEIHYPPFTD [ALDH3B2_Y362_YF] please. 0.559

Report phosphorylation enrichment for VYYGSYSCPYG [NKAP_Y104_R106C] please. 4.15

Report phosphorylation enrichment for HNLDYYKETTN [FGFR3_Y648_K650E] please. 0.788

Report phosphorylation enrichment for SGGSSYGSGGC [KRT1_Y532_G537C] please. 0.697

----------
TESTED_SYSTEM: MERTK (UniProt Q12866)
Sequence (Q12866 whole entry, looked up): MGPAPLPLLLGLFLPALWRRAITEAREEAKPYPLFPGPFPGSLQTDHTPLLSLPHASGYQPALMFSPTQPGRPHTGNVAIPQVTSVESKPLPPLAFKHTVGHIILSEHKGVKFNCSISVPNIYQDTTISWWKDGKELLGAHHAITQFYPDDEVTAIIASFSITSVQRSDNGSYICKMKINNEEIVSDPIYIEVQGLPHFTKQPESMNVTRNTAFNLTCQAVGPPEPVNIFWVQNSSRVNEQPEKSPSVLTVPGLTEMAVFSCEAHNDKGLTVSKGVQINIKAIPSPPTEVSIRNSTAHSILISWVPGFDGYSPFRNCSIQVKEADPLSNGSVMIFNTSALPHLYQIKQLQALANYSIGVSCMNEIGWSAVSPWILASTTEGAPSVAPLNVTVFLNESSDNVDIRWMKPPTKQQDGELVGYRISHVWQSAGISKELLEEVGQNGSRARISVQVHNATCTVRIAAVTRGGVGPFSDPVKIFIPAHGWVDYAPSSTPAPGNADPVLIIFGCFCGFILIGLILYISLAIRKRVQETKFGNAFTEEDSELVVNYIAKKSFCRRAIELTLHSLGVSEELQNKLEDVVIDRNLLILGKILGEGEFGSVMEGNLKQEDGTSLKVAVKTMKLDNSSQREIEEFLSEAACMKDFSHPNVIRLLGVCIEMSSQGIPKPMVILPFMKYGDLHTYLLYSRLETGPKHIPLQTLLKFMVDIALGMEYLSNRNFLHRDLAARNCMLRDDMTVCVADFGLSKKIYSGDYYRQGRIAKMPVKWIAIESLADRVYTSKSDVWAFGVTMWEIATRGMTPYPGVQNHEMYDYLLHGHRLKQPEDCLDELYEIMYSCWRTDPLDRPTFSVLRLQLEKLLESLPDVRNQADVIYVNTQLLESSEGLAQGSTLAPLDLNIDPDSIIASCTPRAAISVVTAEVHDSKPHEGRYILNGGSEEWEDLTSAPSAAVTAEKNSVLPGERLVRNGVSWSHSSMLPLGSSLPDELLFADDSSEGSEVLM
TEST_PROTOCOL: phosphorylation enrichment, bacterial display (enrichment ratio); higher = better substrate or ligand; peptides without Tyr show the background
Classification field: 1 (yes) = phosphorylation enrichment at or over 0.5; 0 (no) = phosphorylation enrichment under 0.5.

AVDMTYDGHPV [FLNB_Y1020_V1018M]; 1 (yes)
QRASDYFSQQM [GBP6_Y333_A331S_YF]; 1 (yes)
CERLPYDASKW [FLT1_Y815]; 0 (no)
PSGPAYRGAVP [ASAH1_Y43_T42A]; 0 (no)
NLMPAYHKCIQ [CYP21A2_Y190_Y191H]; 1 (yes)

Please indicate if the recorded phosphorylation enrichment for QRHFVYFFSFL [PTEN_Y176_R173H_YF] meets or exceeds 0.5. 1 (yes)

Please indicate if the recorded phosphorylation enrichment for TLQSMYGCDLG [HLA-B_Y123_V127L] meets or exceeds 0.5. 1 (yes)

Please indicate if the recorded phosphorylation enrichment for SIVEDYRPPFF [ACVRL1_Y421_G416S_YF] meets or exceeds 0.5. 0 (no)

----------
System: Fer (mouse)
TEST_PROTOCOL: phosphorylation enrichment, bacterial display (enrichment ratio); higher = better substrate or ligand; peptides without Tyr show the background
RECORDED_ENDPOINT: phosphorylation enrichment
// print number alone

Below: 5 sequences and their reported phosphorylation enrichment.
CTTIHYSFMCN [TP53_Y234_N235S_YF]; 0.942
HRGFLYLAIEF [TEK_Y899_Y897F_YF]; 0.968
DVYVSYDYGKS [SORL1_Y139]; 2.42
GLTSTYVGIRK [ROBO1_Y932_A933V]; 0.374
CTTIHYNYMFN [TP53_Y234_C238F]; 0.757

Report phosphorylation enrichment for SHTPSYCDEWL [RITA1_Y109_S113W] please. 0.57

Report phosphorylation enrichment for EVASVYESFQP [MAVS_Y92_Q93E_YF] please. 14

Report phosphorylation enrichment for SSPRRYTIAAL [TTR_Y125_G121S] please. 0.382

Report phosphorylation enrichment for RQQEDYLLFKQ [RARRES1_Y159_YF] please. 0.637

Report phosphorylation enrichment for HMEAVYIDIAD [PITPNA_Y140_V136M] please. 8.49

Report phosphorylation enrichment for LKEIHYPPFTD [ALDH3B2_Y362_YF] please. 0.413

Report phosphorylation enrichment for LKTNCYNNGKD [DNMT3B_Y404] please. 0.68

Report phosphorylation enrichment for CTTIHYHYMCN [TP53_Y234_N235H] please. 0.523
